Reference source for all entries: PubChem BioAssay AID1259426

Target: HEK293 Galpha15/GCaMP6s without NPYLR7, calcium fluorescence
Assay: nonspecific activation in parental Galpha15/GCaMP6s cells – cell-based, HEK293 lacking NPYLR7, counter-screen for mosquito NPYLR7 agonist project, dose response (AID 1259426);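 note: potency for a rise in fluorescence over baseline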
Active and inactive are the calls of the source.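 Rule for the calls: active = EC50 under a set limit in control cells lacking the mosquito receptor, marking a fluorescence artifact; inactive = the rest.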
Your reply should match one of these outcome classes. yes (1) for active, no (0) for inactive

Problem: Which result was noted for this compound in the test: Cc1cc(C)c2cc3c(cc2n1)CCN3CC(O)CO (stereo unspecified)
Result: yes (1)

Problem: Which result was noted for this compound in the test: `CCOC(=O)c1c(-c2ccccc2)csc1N=Cc1nc(-c2ccco2)oc1O`
Result: no (0)

Problem: Which result was noted for this compound in the test: `O=C(O)c1[nH]ncc1CN1CCc2onc(-c3ccc(C(F)(F)F)cc3)c2C1`
Result: no (0)

Problem: Which result was noted for this compound in the test: `C[C@H](O)C(=O)C1=Nc2c(nc(N)[nH]c2=O)NC1`
Result: no (0)

Problem: Which result was noted for this compound in the test: `Oc1oc(-c2ccccc2Br)nc1C=Nc1ccccc1`
Result: yes (1)

Problem: Which result was noted for this compound in the test: `CCCS(=O)(=O)N1CCN=C1SCc1ccccc1C`
Result: no (0)

* * *

Target: HEK293 Galpha15/GCaMP6s without NPYLR7, calcium fluorescence
Assay: nonspecific activation in parental Galpha15/GCaMP6s cells – cell-based, HEK293 lacking NPYLR7, counter-screen for mosquito NPYLR7 agonist project, dose response (AID 1259426);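 note: potency for a rise in fluorescence over baseline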
The source made the active and inactive calls.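 Rule for the calls: active = EC50 under a set limit in control cells lacking the mosquito receptor, marking a fluorescence artifact; inactive = the rest.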
Your reply should match one of these outcome classes. TRUE = active, FALSE = inactive

Problem: Which result was noted for this compound in the test: `CCCCN(CC(=O)Nc1c(-c2ccccc2)c(C)nn1-c1ccccc1C)S(=O)(=O)c1ccc(F)cc1`
Result: FALSE

Problem: Which result was noted for this compound in the test: `Nc1ncnc2c1ncn2[C@@H]1O[C@H](CO)[C@@H](O)[C@H]1O`
Result: TRUE

Problem: Which result was noted for this compound in the test: `O=C(CSc1cn(CC(=O)N2CCCCCC2)c2ccccc12)NC1CCCC1`
Result: FALSE

Problem: Which result was noted for this compound in the test: `COc1cc(C=C2N=C(c3ccc4c(c3)OCO4)OC2=O)cc2c1OCCO2`
Result: FALSE

Problem: Which result was noted for this compound in the test: CCN1C(=Cc2cc(C)[n+](CC3CCCO3)c(C)c2)Sc2ccccc21 (stereo not given)
Result: FALSE

Problem: Which result was noted for this compound in the test: `CC(C)NC[C@H](O)c1ccc(O)c(O)c1`
Result: TRUE

Problem: Which result was noted for this compound in the test: CCC(C)[n+]1c(C)cc(C=C2Sc3ccccc3N2CC)cc1C (stereo not given)
Result: TRUE

Problem: Which result was noted for this compound in the test: `N#C/C(=C\c1ccc(O)c(O)c1)C(=O)NCCCc1ccccc1`
Result: FALSE

Problem: Which result was noted for this compound in the test: `Cc1ccc2c(c1)CCCN2CC(=O)N(CCC(N)=O)c1ccccc1`
Result: TRUE

Problem: Which result was noted for this compound in the test: `COCCn1c(C)cn2c3c(=O)n(Cc4ccc(Cl)cc4)c(=O)n(C)c3nc12`
Result: FALSE

* * *

Molecular target: HEK293 Galpha15/GCaMP6s without NPYLR7, calcium fluorescence
Assay: nonspecific activation in parental Galpha15/GCaMP6s cells – cell-based, HEK293 lacking NPYLR7, counter-screen for mosquito NPYLR7 agonist project, dose response (AID 1259426);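 note: potency for a rise in fluorescence over baseline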
The source made the active and inactive calls.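 How the source made its calls: active means EC50 under a set limit in control cells lacking the mosquito receptor, marking a fluorescence artifact; inactive means the rest.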
Your reply should match one of these outcome classes. Y = active, N = inactive

Problem: Which result was noted for this compound in the test: O=C(C1=NN(c2ccccc2)C2C(=O)N(c3ccccc3)C(=O)C12)c1ccccc1 (stereo unspecified)
Result: N

Problem: Which result was noted for this compound in the test: `CNC(=O)c1cnc(/C=C/c2csc(-c3ccsc3)n2)[nH]c1=O`
Result: N

Problem: Which result was noted for this compound in the test: `NC(=O)CN1c2cccc3cccc(c23)S1(=O)=O`
Result: N

Problem: Which result was noted for this compound in the test: `Cc1ccc(Cl)c(Oc2cc(N3CCN(C(=O)c4ccc(Cl)c(Cl)c4)CC3)ncn2)c1`
Result: N

Problem: Which result was noted for this compound in the test: `CCCC[n+]1c(C)cc(C=C2Sc3ccccc3N2C)cc1C`
Result: N

Problem: Which result was noted for this compound in the test: `CN(Cc1ccccc1)c1cc(Oc2cccc(Cl)c2)ncn1`
Result: N

Problem: Which result was noted for this compound in the test: `COc1cc(/C=C(/C#N)c2nc3cc(Cl)ccc3s2)ccc1O`
Result: N

Problem: Which result was noted for this compound in the test: `O=C1/C(=C/c2cccc(F)c2)Oc2c1ccc(O)c2CN1CCN(CCO)CC1`
Result: Y

Problem: Which result was noted for this compound in the test: `Cc1cc(C=C2Sc3ccccc3N2C)cc(C)[n+]1Cc1ccncc1`
Result: Y

Problem: Which result was noted for this compound in the test: `Cc1nc(=O)c(-c2ccccc2)c(C)n1-c1ccccc1O`
Result: N

Problem: Which result was noted for this compound in the test: Fc1cc(F)cc(C2C=C(c3ccco3)Nc3ncnn32)c1 (stereo unspecified)
Result: Y

Problem: Which result was noted for this compound in the test: CC(C)OC(=O)C(C(=O)C(F)(F)F)c1cc(NS(=O)(=O)c2ccc(Cl)cc2)ccc1O (stereo unspecified)
Result: N

Problem: Which result was noted for this compound in the test: `O=C1OC(c2ccc(Cl)c([N+](=O)[O-])c2)=N/C1=C\c1cc2cc3c4c(c2oc1=O)CCCN4CCC3`
Result: Y

Problem: Which result was noted for this compound in the test: `COc1cc(Br)c(O)c(/C=N\n2c(C)n[nH]c2=S)c1`
Result: N

Problem: Which result was noted for this compound in the test: `O=c1oc2cc(O)ccc2cc1-c1nc2ccccc2s1`
Result: Y

Problem: Which result was noted for this compound in the test: `O=C(O)CN1C(=O)/C(=C\c2ccc(O)cc2)SC1=S`
Result: Y

Problem: Which result was noted for this compound in the test: CCCCN(C)C1=CC2=CC(=C(C#N)C#N)CCC2CC1 (stereo unspecified)
Result: Y

Problem: Which result was noted for this compound in the test: `O=C1C(=Cc2ccc(OC(F)F)cc2OC(F)F)Oc2cc(O)ccc21`
Result: N

Problem: Which result was noted for this compound in the test: `CCn1c(=O)c2c(nc(/C=C/c3ccc(OC)c(OC)c3)n2C)n(CC)c1=O`
Result: N

Problem: Which result was noted for this compound in the test: `COc1cc(/C=C2\SC(=S)N(c3cccc(C(=O)O)c3)C2=O)ccc1O`
Result: N

Problem: Which result was noted for this compound in the test: `Oc1ccc(-c2onc3ccc(Cl)cc23)cc1`
Result: N

Problem: Which result was noted for this compound in the test: `CNC[C@H](O)c1ccc(O)c(O)c1`
Result: Y

Problem: Which result was noted for this compound in the test: `Cc1c(NC(=O)COC(=O)C(C#N)=Cc2ccc(N(C)C)cc2)c(=O)n(-c2ccccc2)n1C`
Result: N

Problem: Which result was noted for this compound in the test: `COc1cc(C=C2Oc3cc(O)ccc3C2=O)cc(OC)c1OC`
Result: Y

Problem: Which result was noted for this compound in the test: `C=CCN1C=CC(=CC=C(C#N)C#N)C=C1`
Result: Y

Problem: Which result was noted for this compound in the test: COc1cc(/C=C2\SC(=S)N(C(CC(=O)O)C(=O)O)C2=O)ccc1O (stereo unspecified)
Result: Y

Problem: Which result was noted for this compound in the test: `CN(C)c1ccc(/C=C2/SC(=S)N(CC(=O)O)C2=O)cc1`
Result: Y

Problem: Which result was noted for this compound in the test: `O=C(O)c1csc(CSc2nnc(-c3ccncc3)n2-c2cccc(C(F)(F)F)c2)n1`
Result: N

Problem: Which result was noted for this compound in the test: `CCN1CCN(C(=O)c2ccc(Cn3ccsc3=NC(=O)c3ccc(OC)c(OC)c3)o2)CC1`
Result: N

Problem: Which result was noted for this compound in the test: COc1cc(-c2nc3n(n2)C(c2ccc(O)cc2)C(C(N)=O)=C(C)N3)cc(OC)c1OC (stereo unspecified)
Result: N

Problem: Which result was noted for this compound in the test: CSc1nnc2c(n1)OC(c1ccc(OC(=O)c3ccc(Br)cc3)cc1)Nc1ccccc1-2 (stereo unspecified)
Result: N

Problem: Which result was noted for this compound in the test: `Nc1nc(Cl)nc2c1ncn2[C@@H]1O[C@H](CO)[C@@H](O)[C@H]1O`
Result: Y

Problem: Which result was noted for this compound in the test: `O=C(O)CSc1ccc2c3c(cccc13)C(=O)c1ccccc1-2`
Result: Y

Problem: Which result was noted for this compound in the test: `O=C1NC(=S)SC1=Cc1cc(O)c(O)c(Cl)c1`
Result: N

Problem: Which result was noted for this compound in the test: `O=C(O)CN1C(=O)/C(=C\c2cc([N+](=O)[O-])cc(Br)c2O)SC1=S`
Result: Y

Problem: Which result was noted for this compound in the test: `Nc1ccc2c3c(cccc13)C(=O)N(c1ccccc1)C2=O`
Result: Y

Problem: Which result was noted for this compound in the test: `CCOC(=O)N1CCN(c2ccc(/C=C(\C#N)c3nc4ccccc4[nH]3)o2)CC1`
Result: N

Problem: Which result was noted for this compound in the test: `CC(=O)Oc1ccc(Cn2c(C)c(C(=O)NCc3ccc(C#N)cc3)sc2=O)cc1`
Result: N

Problem: Which result was noted for this compound in the test: `CC(C)Nc1ccc(NS(=O)(=O)NCc2ccccc2)cn1`
Result: N

Problem: Which result was noted for this compound in the test: N#CC1C(=N)SC(=N)C(C#N)C1c1cccc(O)c1 (stereo unspecified)
Result: Y

Problem: Which result was noted for this compound in the test: `COc1ccc(OC)c(CCNc2nc3cnc(-c4cc(OC)c(OC)c(OC)c4)cc3n2C)c1`
Result: N

Problem: Which result was noted for this compound in the test: `CC(C)NC[C@@H](O)c1ccc(O)c(O)c1`
Result: Y

Problem: Which result was noted for this compound in the test: `CN1C(=S)N(c2ccc3c(c2)CCC3)C(=O)/C1=C\c1ccncc1`
Result: N

Problem: Which result was noted for this compound in the test: CCCC(C(=O)O)N1C(=O)/C(=C/c2ccc(O)cc2)SC1=S (stereo unspecified)
Result: Y

Problem: Which result was noted for this compound in the test: CC1=CC(C)C(C(=O)O)C(C(=O)O)C1 (stereo unspecified)
Result: N

Problem: Which result was noted for this compound in the test: Nc1nc(Cl)nc2c1ncn2[C@@H]1O[C@H](COP(=O)(O)OP(=O)(O)OP(=O)(O)O)[C@H](O)C1O (stereo partly specified)
Result: N
